Test summary: Cytotoxicity assay (Alamar Blue)
Type: cell-based
Condition: human, THP1 cells (human monocytic leukemia), concentrations 10–0.0032 μg/mL

| Molecule | Scale unit | Limit operator | CC50 |
| --- | --- | --- | --- |
| O=C1C=CC(=O)N1CCCc1ccccc1 | µg/mL | = | 8.25 |
| CC(C)CN1C(=O)C=CC1=O | µg/mL | > | 10 |
| CCCCCCN1C(=O)C=CC1=O | µg/mL | > | 10 |
| CC1=CC(=O)N(CCc2ccccc2)C1=O | µg/mL | = | 5.99 |
| CC1=CC(=O)N(Cc2ccccc2)C1=O | µg/mL | = | 7.94 |
| CCCCCCN1C(=O)C=C(C)C1=O | µg/mL | = | 5.89 |

* * *

Test summary: Cytotoxicity assay (Alamar Blue)
Assay type: cell-based
Condition: human, THP1 cells (human monocytic leukemia), concentrations 10–0.0032 μg/mL
Description: In order to verify the safety of maleimides, they were tested for cytotoxicity against human monocytic leukemia cells (THP1) 50% cytotoxic concentration values represent the concentration of compound required to kill 50% of the THP1 cells were calculated (CC50). […] In vitro anti-leishmanial assay. […] Plates were incubated at 26 °C for 48 h and the growth of Leishmania promastigotes was determined by the Alamar blue assay as described earlier. […]
Measured CC50, listed per entry.

| Molecule | CC50 |
| --- | --- |
| Cc1c(N2C(=O)C(Cl)=C(Cl)C2=O)cccc1[N+](=O)[O-] | > 10 µg/mL |
| O=C1C=CC(=O)N1Cc1ccccc1 | 4.56 µg/mL |
| Cc1cccc(C)c1N1C(=O)C=CC1=O | 3.65 µg/mL |
| CC1=CC(=O)N(CC(C)C)C1=O | > 10 µg/mL |
| O=C1C=CC(=O)N1c1ccc(F)cc1 | > 10 µg/mL |
| O=C1C=CC(=O)N1CCc1ccccc1 | 4.13 µg/mL |
| CCCCCN1C(=O)C=C(C)C1=O | 7.64 µg/mL |
| CCc1cccc(CC)c1N1C(=O)C=C(C)C1=O | 4.39 µg/mL |
| CCCCN1C(=O)C=CC1=O | > 10 µg/mL |
| CCCCCCCCCCCCN1C(=O)C=CC1=O | > 10 µg/mL |
| O=C1C(Cl)=C(Cl)C(=O)N1CCCc1ccccc1 | > 10 µg/mL |
| O=C1C=CC(=O)N1C1CCCCC1 | > 10 µg/mL |
| CCCCCCCCN1C(=O)C=C(C)C1=O | 8.1 µg/mL |
| O=C1C=CC(=O)N1c1ccc(Cl)cc1 | > 10 µg/mL |
| Cc1ccc(N2C(=O)C=CC2=O)cc1 | > 10 µg/mL |
| CC1=CC(=O)N(c2c(C)cccc2C)C1=O | > 10 µg/mL |
| CCCCCN1C(=O)C=CC1=O | > 10 µg/mL |
| CCCCCCCCN1C(=O)C=CC1=O | > 10 µg/mL |
